test: yeast display, Sf9 membrane polyspecificity reagent, FACS + sequencing; frameworks hold sequencing errors
PARAMETER: polyreactivity (PSR sort gate)

MACROMOLECULE SEQUENCE	ASSAY RESULT
QVQLVESGGGLVQAGGSLRLSCAASGIIFRGNAMGWYRQEPGKESEIVAAISLRGSRTYYADSVKGRFTISRDNAKNTVYLQMNSLKPEDSAVYYCNARGGTSPFGSDYWGQGTQVTVSS	high polyreactivity
QVQLVESGGGLVQAGGSLRISCAASGSIFPRYAMGWYRQAPGTERELVATISASGTDTYYADSVKGRFTISRDNAKNTVYLQMNSLKPEDTAVYYCAAGGYPGGEDYWGQGTQVTVSS	low polyreactivity
QVQLVESGGGLVQAGGSLRLSCAASGFIFRFYAMGWYRQAPGKERELVASISRRAGRTYYADSVKGRFTISRDNAKNTVYLQMNSLKPEDTAVYYCAASGFGSFRYSSTYDYWGQCTQVTVSS	high polyreactivity
QVKLVESGGGLVQAGGSLRLSCSASGLTLSGNAMGWYRQAPGKERELVAAITGRGGSTTYADSVKGRFTISRDNAKNTVYLQMNSLKPEDTAVYYCPATRYSWHNRGSRRHRYDYWGQGTQVTVSS	low polyreactivity
QVQLVESGGGLVQAGGSLRLSCAPSGRIIFYNAMGWYRQAPGKERELVAAISIGGRTYYADSVKGRFTISRDNAKNTVYLQMNSLKPEDTAVYYCAALGYPYLRSGYWGQGTQVTVSS	high polyreactivity

---

assay: yeast display, Sf9 membrane polyspecificity reagent, FACS + sequencing; frameworks hold sequencing errors
PARAMETER: polyreactivity (PSR sort gate)

MACROMOLECULE SEQUENCE	PARAMETER	ASSAY RESULT
QVQLVESGGGLVQAGGSLRLSCAASGSIFTPYAMGWYRQAPGKERELVAAISRSGGSTYYADSVKGRFTISRDNAKITVYLQMNSLKPEDTAVYYCAVVASLSHTETPEYDYWGQGTQGTVSS	polyreactivity (PSR sort gate)	low polyreactivity
QVQLVESGGGLVQAGGSLRLSCAASGFSFSDYPMGWYRQAPGKERELVAAISGSGGSTYYADSVKGRFTISRDTAKNSVYLQMNSLKPEDTSVYYCNKGYARRYASGYDYWGQGTQVTVSS	polyreactivity (PSR sort gate)	high polyreactivity
QVQLVESGGGLVQAGGSLRLSCAASGSTFTINVMGWYRQAPGKERELVAAIHGGGRPNYADSVKGRFTISRDNAKKTVYLQMNSLKPEDTAVYYCAADGLSNVRQMDYWGQGTQVTVSS	polyreactivity (PSR sort gate)	low polyreactivity
QVQLVESGGGLVQAGCSLRLSCAASGSIFYFYGMGWYRQAPGKERELVASITYSGTSTYYADSVKGRFTISRDNAMITVYLQMNSLKPEDTAVYYCAASFYTVNSWYDSWGQGTQVTVSS	polyreactivity (PSR sort gate)	low polyreactivity
QVQLVESGGGLVQAGGSLRLSCAASGSIFQTYAMGWYRQAPGKERELVAAIDGGDTTNYADSVKGRFTISRDNAKNTVYLQMNSLKPEDTAVYYCNADWGQVTQVTVSS	polyreactivity (PSR sort gate)	low polyreactivity
QVQLVESGGGLVQAGGSLRLSCAASGSTFSPYAMGWYRQAPGKERELVANITISGGSTYYADSVKGRFTISRDNAKNTVYLQMNSLKPEDTAVYFCNADSLIRWLFTVVIFDYWGQGTQVTVSS	polyreactivity (PSR sort gate)	low polyreactivity
QVQLVESGGGLVQAGGSLRLSCAASGFIIGSYTMGWYRQAHGKERELVASITKRGGSTYYADSVKGRFTISRDNAKNTVYLQMNSLKPEDTSVYYCAATYWFSHRSRYDYWGQGTQVTVSS	polyreactivity (PSR sort gate)	high polyreactivity
QVQLVESGGGIVQAGGSLRLSCAASGRIFNRYAMGWYRQAPGKKWELVATISVSGANTYYADSVKGRFTISRDNAKNTVYLQMNSLKPEDTAVYSCNVKRGTIGGYYYWGQVTQVTVSS	polyreactivity (PSR sort gate)	high polyreactivity
QDQLVESVGGLVQAGGSLRLSCAASGSIFNRYVMGCYSQAPGKERELVAAMSRRGGNTYYADSVKGRFTISRDNAKNTVYLQMNSLKPEATAVYYCAADYSYYYGYDYWGQGTQVTVSS	polyreactivity (PSR sort gate)	high polyreactivity
QVQLVESGGRLVQAGGSLRLSCAASGPIFAPYDMGWYRQAPGKERELVAAISRSGGSTYYADSVKGRFTISRDNAKNTVYLQMNSLKPEETPVYSCAAGLFVGFDYWGQGTQVTVTS	polyreactivity (PSR sort gate)	high polyreactivity
QVQLVESGGGLVQAGGSLRLSCAASGRTFLTYVMGWYRQAPWKERELVAAITRGGRTNYADSVKGRFTISRDNAKNTVYLQMNSLKPEDTAVYYCARDDTPRYDYWGQGTQVTVSS	polyreactivity (PSR sort gate)	low polyreactivity
